assay: NCI Yeast Anticancer Drug Screen. Data for the bub3 strain (AID 167); conditions: S. cerevisiae bub3 mutant strain, at 50.0 µM, active compounds read high
This is part of a sample that, as a whole, favours compounds with a hit. Of some 79,000 tested, about 15% had one in any assay. Where a SMILES comes first, the peptide text is derived from it. The star is where a group is joined. Cbz = O=C(OCc1ccccc1)*
Parameter growth inhibition: see the listing below.
Answer with a number only, understood to be in %.

- compound: "Cc1ccc(CNC(=O)Nc2cccc(Cl)c2)cc1C"
  metric: "growth inhibition"
  observed: 16.8
- compound: "COc1ccc(N(CN2C(=O)CCC2=O)CS(=O)(=O)c2ccc(Cl)cc2)cc1"
  metric: "growth inhibition"
  observed: -3.75
- compound: "COC(=O)C(C(C[N+](=O)[O-])c1ccco1)=P(c1ccccc1)(c1ccccc1)c1ccccc1 (stereo not drawn)"
  metric: "growth inhibition"
  observed: 0.95
- compound: "ClC1=CC(Cl)=C2N=C(N3CCCC3)N=C3N=C(N4CCCC4)N=C1N32"
  metric: "growth inhibition"
  observed: 1.6
- compound: "CC(C)(C)CI"
  metric: "growth inhibition"
  observed: -11.2
- compound: "CCCc1cc(=O)oc2c3c(c4c(c12)OC(C)(C)C=C4)OC(C)[C@H](C)[C@@H]3O (stereo partly drawn)"
  metric: "growth inhibition"
  observed: 19.8
- compound: "CC(=O)OC1CC2CCCCC21 (stereo not drawn)"
  metric: "growth inhibition"
  observed: 13.8
- compound: "CCOC(=O)C(=O)C(=O)NN(C)C1=NCCN1"
  metric: "growth inhibition"
  observed: 6.55
- compound: "O=[N+]([O-])c1cc(Cl)cc2c1nc(NCCCO)c1ccccc12"
  metric: "growth inhibition"
  observed: -7.65
- compound: "Nc1c(S(=O)(=O)O)cc(S(=O)(=O)O)c2ccc(N=Nc3ccccc3)c(O)c12"
  metric: "growth inhibition"
  observed: -8.7

May I ask what growth inhibition has been recorded for Cc1ccc(C(=O)N/N=C/c2ccc3ccccc3c2)cc1 ?
33.4

May I ask what growth inhibition has been recorded for N#[N+]c1ccc2c(c1)C(=O)c1ccccc1-2 ?
8.6

May I ask what growth inhibition has been recorded for CCC(CCCN)Nc1cc(OC)cc2c(C)ccnc12 (stereo not drawn) ?
21.2

May I ask what growth inhibition has been recorded for CC(=O)OC1(C#N)CC2OC1C1N=NN(C(=O)OC(C)(C)C)C21 (stereo not drawn) ?
16.1

May I ask what growth inhibition has been recorded for N#C/C(=C\NC(=S)Nc1ccc(S(=O)(=O)Nc2nccs2)cc1)C(=O)c1ccc2ccccc2c1 ?
-8

May I ask what growth inhibition has been recorded for Cc1ccc(C(=O)C2CC2c2ccccc2)cc1 (stereo not drawn) ?
-0.95

May I ask what growth inhibition has been recorded for C=CCC(O)c1ccc(OC)c(OC)c1 (stereo not drawn) ?
3.4

May I ask what growth inhibition has been recorded for CC(NC(=O)C(Cc1ccc(O)cc1)NC(=O)C(C)NC(=O)OCc1ccccc1)C(=O)O (stereo not drawn) (Cbz-Ala-Tyr-Ala-OH; configuration not given here) ?
-5.8

May I ask what growth inhibition has been recorded for N#CC1C(=O)NC(=S)NC1c1ccc(Cl)c(Cl)c1 (stereo not drawn) ?
-13.8

May I ask what growth inhibition has been recorded for N#Cc1ccc(OCCCOc2ccc(C#N)cc2)cc1 ?
46.2

May I ask what growth inhibition has been recorded for COC(=O)CCc1onc(Br)c1CCl ?
9.95

May I ask what growth inhibition has been recorded for CCCCCC1(C)OCC(c2ccccc2)O1 (stereo not drawn) ?
-13.3

May I ask what growth inhibition has been recorded for Cc1ccc([N+](=O)[O-])cc1NC(=O)C(=O)C1CCC2=C(Sc3ccccc3N2)C1=O (stereo not drawn) ?
-0.4
